Could you please report measured pIC50 for the items listed next?
biological target: Estrogen receptor (Homo sapiens, UniProt P03372); experiment: Antagonist activity at ERalpha expressed in HEK293/Gal4 cells incubated for 24 hrs in presence of estradiol by luciferase reporter gene assay
Bear in mind: pIC50 is minus log10 of a mol/L concentration; give just that figure.

Which pIC50 reading was recorded for the compound CC(F)(F)c1cc(F)c(F)cc1-c1sc2c(ccc3[nH]ncc32)c1Oc1ccc(OC2CN(CCCF)C2)c(F)c1 ?
8.28

Which pIC50 reading was recorded for the compound COc1cc(Oc2c(-c3ccc(F)cc3C(C)(C)F)sc3c2ccc2[nH]ncc23)ccc1OC1CN(CCCF)C1 ?
9.10

Which pIC50 reading was recorded for the compound COc1cc(Oc2c(-c3ccc(F)cc3CC(F)(F)F)sc3c2ccc2[nH]ncc23)ccc1NC1CN(CCCF)C1 ?
8.96

Which pIC50 reading was recorded for the compound FCCCN1CC(Nc2ccc(Oc3c(-c4ccc(F)cc4CC(F)(F)F)sc4c3ccc3[nH]ncc34)cc2)C1 ?
8.89

Which pIC50 reading was recorded for the compound CC(F)(F)c1cc(F)ccc1-c1sc2c(ccc3[nH]ncc32)c1Oc1ccc(OC2CN(CCCF)C2)c(F)c1 ?
9.00

Which pIC50 reading was recorded for the compound COc1cc(Oc2c(-c3cc(F)c(F)cc3C(C)(F)F)sc3c2ccc2[nH]ncc23)ccc1OC1CN(CCCF)C1 ?
8.85

Which pIC50 reading was recorded for the compound COc1cc(Oc2c(-c3cc(F)c(F)cc3C(C)(F)F)sc3c2ccc2[nH]ncc23)ccc1NC1CN(CCCF)C1 ?
8.60

Which pIC50 reading was recorded for the compound CC(F)(F)c1cc(F)ccc1-c1sc2c(ccc3[nH]ncc32)c1Oc1ccc(NC2CN(CCCF)C2)c(F)c1 ?
8.96

Which pIC50 reading was recorded for the compound COc1cc(Oc2c(-c3ccc(F)cc3CC(F)(F)F)sc3c2ccc2[nH]ncc23)ccc1OC1CN(CCCF)C1 ?
9.05

Which pIC50 reading was recorded for the compound CC(F)(F)c1cc(F)c(F)cc1-c1sc2c(ccc3[nH]ncc32)c1Oc1ccc(OC2CN(CCCF)C2)cc1 ?
8.60

Which pIC50 reading was recorded for the compound COc1cc(Oc2c(-c3ccc(F)cc3C(C)(F)F)sc3c2ccc2[nH]ncc23)ccc1OC1CN(CCCF)C1 ?
9.22

* * *

Could you please report measured EC50 for the items listed next?
Target: Estrogen receptor (Homo sapiens, UniProt P03372)
Sequence (P03372 whole entry): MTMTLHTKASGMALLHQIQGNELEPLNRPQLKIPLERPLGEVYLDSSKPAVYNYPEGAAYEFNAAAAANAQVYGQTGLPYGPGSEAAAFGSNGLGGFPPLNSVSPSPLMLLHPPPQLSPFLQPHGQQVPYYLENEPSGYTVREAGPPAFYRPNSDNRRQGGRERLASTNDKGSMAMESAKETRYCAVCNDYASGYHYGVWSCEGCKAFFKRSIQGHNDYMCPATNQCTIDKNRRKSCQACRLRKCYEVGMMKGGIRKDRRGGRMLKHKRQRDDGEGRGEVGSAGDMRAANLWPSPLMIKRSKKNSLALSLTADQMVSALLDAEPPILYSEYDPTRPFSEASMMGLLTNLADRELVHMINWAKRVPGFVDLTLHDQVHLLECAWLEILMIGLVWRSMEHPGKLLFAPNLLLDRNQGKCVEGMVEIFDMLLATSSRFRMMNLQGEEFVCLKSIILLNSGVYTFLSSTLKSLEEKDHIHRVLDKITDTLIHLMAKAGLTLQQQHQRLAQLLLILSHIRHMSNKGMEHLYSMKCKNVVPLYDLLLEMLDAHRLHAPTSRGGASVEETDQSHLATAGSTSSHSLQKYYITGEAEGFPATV
Test: Induction of ERalpha degradation in human MCF7 cells incubated for 24 hrs by Western blot analysis

Which EC50 reading was recorded for the molecule CC(F)(F)c1cc(Cl)ccc1-c1sc2cc(C(=O)O)ccc2c1Oc1ccc(NC2CN(CCCF)C2)cc1 ?
13.1 nM

Which EC50 reading was recorded for the molecule CC(F)(F)c1cc(F)ccc1-c1sc2c(ccc3[nH]ncc32)c1Oc1ccc(S(=O)(=O)CCN2CC(CF)C2)cc1 ?
> 1000 nM

Which EC50 reading was recorded for the molecule CC(F)(F)c1cc(F)ccc1-c1sc2c(ccc3[nH]ncc32)c1Oc1ccc(OCCN2CC(CF)C2)cc1 ?
0.9 nM

Which EC50 reading was recorded for the molecule COc1cc(Oc2c(-c3ccc(F)cc3CC(F)(F)F)sc3c2ccc2[nH]ncc23)ccc1NC1CN(CCCF)C1 ?
2.2 nM

Which EC50 reading was recorded for the molecule CC(F)(F)c1cc(Cl)ccc1-c1sc2cc(C(=O)O)ccc2c1Oc1ccc(OC2CN(CCCF)C2)cc1 ?
3.9 nM

Which EC50 reading was recorded for the molecule CC(F)(F)c1cc(F)ccc1-c1sc2cc(B(O)O)ccc2c1Oc1ccc(OCCN2CC(CF)C2)cc1 ?
1.2 nM

Which EC50 reading was recorded for the molecule CC(F)(F)c1cc(F)ccc1-c1sc2c(ccc3[nH]ncc32)c1Oc1ccc(OC2CN(CCCF)C2)c(F)c1 ?
1.3 nM

Which EC50 reading was recorded for the molecule CC(F)(F)c1cc(F)ccc1-c1sc2c(ccc3[nH]ncc32)c1Oc1ccc(COCCN2CC(CF)C2)cc1 ?
> 1000 nM

Which EC50 reading was recorded for the molecule COc1cc(Oc2c(-c3ccc(F)cc3C(C)(C)F)sc3c2ccc2[nH]ncc23)ccc1OC1CN(CCCF)C1 ?
1.4 nM

Which EC50 reading was recorded for the molecule CC(F)(F)c1cc(F)c(F)cc1-c1sc2c(ccc3[nH]ncc32)c1Oc1ccc(OC2CN(CCCF)C2)c(F)c1 ?
3.9 nM

Which EC50 reading was recorded for the molecule CC(F)(F)c1cc(Cl)ccc1-c1sc2c(ccc3[nH]ncc32)c1Oc1ccc(OC[C@H]2CCCN2CCCF)cc1 ?
> 1000 nM

Which EC50 reading was recorded for the molecule CC(F)(F)c1cc(F)ccc1-c1sc2c(ccc3[nH]ncc32)c1Oc1ccc(NC2CN(CCCF)C2)c(F)c1 ?
1.3 nM

Which EC50 reading was recorded for the molecule COc1cc(Oc2c(-c3ccc(F)cc3CC(F)(F)F)sc3c2ccc2[nH]ncc23)ccc1OC1CN(CCCF)C1 ?
1.8 nM

Which EC50 reading was recorded for the molecule CC(F)(F)c1cc(F)c(F)cc1-c1sc2c(ccc3[nH]ncc32)c1Oc1ccc(OC2CN(CCCF)C2)cc1 ?
3.4 nM

Which EC50 reading was recorded for the molecule COc1cc(Oc2c(-c3ccc(F)cc3C(C)(F)F)sc3c2ccc2[nH]ncc23)ccc1OC1CN(CCCF)C1 ?
0.4 nM

Which EC50 reading was recorded for the molecule CC(F)(F)c1cc(Cl)ccc1-c1sc2cc(C(=O)O)ccc2c1Oc1ccc(O[C@@H]2CCN(CCCF)C2)cc1 ?
1 nM

Which EC50 reading was recorded for the molecule CC(F)(F)c1cc(Cl)ccc1-c1sc2cc(C(=O)O)ccc2c1Oc1ccc(OCCN2CC(CF)C2)cc1 ?
2.6 nM

Which EC50 reading was recorded for the molecule CC(F)(F)c1cc(F)ccc1-c1sc2c(ccc3[nH]ncc32)c1Oc1ccc(OCCN2CC3C(C2)C3(F)F)cc1 (stereo not given) ?
> 1000 nM

Which EC50 reading was recorded for the molecule CC(c1cc(F)ccc1-c1sc2c(ccc3[nH]ncc32)c1Oc1ccc(OC2CN(CCCF)C2)cc1)C(F)(F)F (stereo not given) ?
2.5 nM

Which EC50 reading was recorded for the molecule FCCCN1CC(Nc2ccc(Oc3c(-c4ccc(F)cc4CC(F)(F)F)sc4c3ccc3[nH]ncc34)cc2)C1 ?
2.2 nM

Which EC50 reading was recorded for the molecule CC(F)(F)c1cc(Cl)ccc1-c1sc2c(ccc3[nH]ncc32)c1Oc1ccc(OC2CN(CCCF)C2)cc1 ?
1.1 nM

Which EC50 reading was recorded for the molecule CC(F)(F)c1cc(Cl)ccc1-c1sc2c(ccc3[nH]ncc32)c1Oc1ccc(N[C@@H]2CCN(CCCF)C2)cc1 ?
1 nM

Which EC50 reading was recorded for the molecule COc1cc(Oc2c(-c3cc(F)c(F)cc3C(C)(F)F)sc3c2ccc2[nH]ncc23)ccc1NC1CN(CCCF)C1 ?
2.6 nM

Which EC50 reading was recorded for the molecule CC(F)(c1cc(F)ccc1-c1sc2c(ccc3[nH]ncc32)c1Oc1ccc(NC2CN(CCCF)C2)cc1)C(F)(F)F (stereo not given) ?
6.6 nM

Which EC50 reading was recorded for the molecule CC(F)(F)c1cc(F)ccc1-c1sc2cc(B(O)O)ccc2c1Oc1ccc(OCCN2CC[C@@H](CF)C2)cc1 ?
2.2 nM
